B1: library; a variant is named by its letters at N, in order (parent)
chain: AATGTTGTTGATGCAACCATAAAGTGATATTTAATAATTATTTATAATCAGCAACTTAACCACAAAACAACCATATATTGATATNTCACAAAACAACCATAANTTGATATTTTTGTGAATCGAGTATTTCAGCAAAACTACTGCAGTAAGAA

# Variants of: B1
# testDescription: relative integration efficiency (T-RL orientation) vs wild-type transposon end (log2 (normalized fold change)); transposon end mutated: left end; higher = more efficient transposition
# measurementConditions: with VchCAST RNA-guided transposition machinery (E. coli BL21(DE3) host, lacZ target)
// map relative integration efficiency (log2) onto a label; ranges A (below -0.6), B (-0.6 to below -0.1), C (-0.1 or more)

[
  {
    "variantId": "CT A21C A22C A23C G24T A75C T76G A77C T78G A101C A102C T104G",
    "assignedLabel": "A"
  },
  {
    "variantId": "TA A70C T76A T84A C87A T104G T113A",
    "assignedLabel": "C"
  },
  {
    "variantId": "CG T74A A75T",
    "assignedLabel": "B"
  },
  {
    "variantId": "CG G117C A118T",
    "assignedLabel": "C"
  },
  {
    "variantId": "TG A70C T76A T84A C87A",
    "assignedLabel": "C"
  },
  {
    "variantId": "CG A107T T108A",
    "assignedLabel": "A"
  },
  {
    "variantId": "CT T104G T105G G106T",
    "assignedLabel": "A"
  },
  {
    "variantId": "CG C14A",
    "assignedLabel": "B"
  },
  {
    "variantId": "CG A102T",
    "assignedLabel": "B"
  },
  {
    "variantId": "TA A70C T76A T84A C87A A96C T112G T113C",
    "assignedLabel": "B"
  },
  {
    "variantId": "CG C87G A88T",
    "assignedLabel": "C"
  },
  {
    "variantId": "CG A92T A93T",
    "assignedLabel": "B"
  },
  {
    "variantId": "CG T86A C87G",
    "assignedLabel": "C"
  },
  {
    "variantId": "CG T112G",
    "assignedLabel": "A"
  },
  {
    "variantId": "CG G13C",
    "assignedLabel": "C"
  },
  {
    "variantId": "CG A81C",
    "assignedLabel": "B"
  },
  {
    "variantId": "CG A21C",
    "assignedLabel": "A"
  },
  {
    "variantId": "CG C97A",
    "assignedLabel": "B"
  },
  {
    "variantId": "TA A16C G24T T32G A33C A70C T76A T84A C87A A96C T110A T113A",
    "assignedLabel": "C"
  },
  {
    "variantId": "CG C72G A73T T74A A75T",
    "assignedLabel": "A"
  },
  {
    "variantId": "TA A70C T76A T84A C87A T104A T110A T113A",
    "assignedLabel": "B"
  },
  {
    "variantId": "CG A15G",
    "assignedLabel": "B"
  },
  {
    "variantId": "TA A22T G24T T31C A33C A70C T76A T84A C87A T104A T110A T113A",
    "assignedLabel": "B"
  },
  {
    "variantId": "CG A47T T48A C49G A50T",
    "assignedLabel": "A"
  },
  {
    "variantId": "CG A69T A70T",
    "assignedLabel": "B"
  },
  {
    "variantId": "CG T20G A21C A22C A23C",
    "assignedLabel": "A"
  }
]

Origin of the recorded values: the supplement of paper PMC10201428
